Species: Rattus norvegicus
Measurement protocol: Ratio of striatum/cerebellum distribution in rat after 1 hr
Assay type: ADME, organism-based
Condition set: in vivo

Compound: COc1cc(N=[N+]=[N-])c(I)cc1C(=O)NC1CCN(Cc2ccccc2)CC1 [IODOAZIDOCLEBOPRIDE]
Ratio: 2.23
//
Compound: COc1cc(N)c(I)cc1C(=O)NC1CCN(Cc2ccccc2)CC1
Ratio: 1.92

----------
System: Rattus norvegicus
Measurement protocol: Distribution of [125I]iodoclebopride in striatum after intravenous administration in rat after 1hour, expressed as percent dose/gram
Format: ADME, organism-based
Condition set: in vivo
Metric name: Tissue distribution (%)

Molecule: COc1cc(N=[N+]=[N-])c(I)cc1C(=O)NC1CCN(Cc2ccccc2)CC1 [IODOAZIDOCLEBOPRIDE]
Recorded result: 2.52

----------
Tested on: Rattus norvegicus
Measurement protocol: Distribution of [125I]-AC in blood after intravenous administration in rat after 2hours, expressed as percent dose/gram
Format: ADME, organism-based
Condition set: in vivo

Smi: COc1cc(N)c(I)cc1C(=O)NC1CCN(Cc2ccccc2)CC1
Unit annotation: %
Tissue distribution: 0.29

----------
Tested on: Rattus norvegicus
Measurement protocol: Distribution of [125I]AC in rest of the brain after intravenous administration in rat after 2hours, expressed as percent dose/gram
Format: ADME, organism-based
Condition set: in vivo

Smi: COc1cc(N)c(I)cc1C(=O)NC1CCN(Cc2ccccc2)CC1
Target entity: Rattus norvegicus
Tissue distribution: 0.16%

----------
Test system: Rattus norvegicus
Measurement protocol: Distribution of [125I]AC in cerebellum after intravenous administration in rat after 1hour, expressed as percent dose/gram
Assay type: ADME, organism-based
Condition set: in vivo

Smi: COc1cc(N)c(I)cc1C(=O)NC1CCN(Cc2ccccc2)CC1
Tissue distribution, %: 0.26

----------
Tested on: Rattus norvegicus
Measurement protocol: Distribution of [125I]-AC in heart after intravenous administration in rat after 2hours, expressed as percent dose/gram
Assay type: ADME, organism-based
Condition set: in vivo

Smi: COc1cc(N)c(I)cc1C(=O)NC1CCN(Cc2ccccc2)CC1
Unit annotation: %
Tissue distribution: 0.3

----------
Tested on: Rattus norvegicus
Measurement protocol: Distribution of [125I]iodoclebopride in heart after intravenous administration in rat after 2hours, expressed as percent dose/gram
Assay type: ADME, organism-based
Condition set: in vivo

Molecule: COc1cc(N=[N+]=[N-])c(I)cc1C(=O)NC1CCN(Cc2ccccc2)CC1 [IODOAZIDOCLEBOPRIDE]
Target entity: Rattus norvegicus
Tissue distribution: 1.34%

----------
Tested on: Rattus norvegicus
Measurement protocol: Distribution of [125I]Iodoclebopride in rest of the brain after intravenous administration in rat after 2hours, expressed as percent dose/gram
Type: ADME, organism-based
Condition set: in vivo

Compound: COc1cc(N=[N+]=[N-])c(I)cc1C(=O)NC1CCN(Cc2ccccc2)CC1 [IODOAZIDOCLEBOPRIDE]
Target entity: Rattus norvegicus
Unit annotation: %
Tissue distribution: 0.73

----------
Tested on: Rattus norvegicus
Measurement protocol: Distribution of [125I]iodoclebopride in blood after intravenous administration in rat after 2hours, expressed as percent dose/gram
Assay type: ADME, organism-based
Condition set: in vivo
Metric name: Tissue distribution (%)

Compound: COc1cc(N=[N+]=[N-])c(I)cc1C(=O)NC1CCN(Cc2ccccc2)CC1 [IODOAZIDOCLEBOPRIDE]
Recorded result: 0.34
